Conditions: human gut metagenome, 24 h, 2 µM; note: call rule not given here
quantity-name: Bacterial Biotransformation

compound	Bacterial Biotransformation
CCCCc1nc(Cl)c(CO)n1Cc1ccc(-c2ccccc2-c2nn[nH]n2)cc1	Compound NOT metabolized
Cc1ccc(/C(=C\CN2CCCC2)c2ccccn2)cc1	Compound NOT metabolized
OCCN1CCN(CCCN2c3ccccc3Sc3ccc(C(F)(F)F)cc32)CC1	Compound NOT metabolized
CCOc1ccc(NC(C)=O)cc1	Compound NOT metabolized
Cc1nc(-c2ccc(OCC(C)C)c(C#N)c2)sc1C(=O)O	Compound metabolized

Provide Bacterial Biotransformation for all items below, preserving their order.
1. CN1CCOC(c2ccccc2)c2ccccc2C1 (stereo not drawn)
2. CN(C)C(=O)C(CCN1CCC(O)(c2ccc(Cl)cc2)CC1)(c1ccccc1)c1ccccc1 [LOPERAMIDE]
3. CCCCCOC(=O)Nc1nc(=O)n([C@@H]2O[C@H](C)[C@@H](O)[C@H]2O)cc1F
4. CCc1nc(N)nc(N)c1-c1ccc(Cl)cc1

Compound metabolized
Compound metabolized
Compound metabolized
Compound NOT metabolized

Record Bacterial Biotransformation for all entries; do not skip any.
1. CCCc1nc2c(C)cc(-c3nc4ccccc4n3C)cc2n1Cc1ccc(-c2ccccc2C(=O)O)cc1
2. COc1cc2nc(N(C)CCCNC(=O)C3CCCO3)nc(N)c2cc1OC (stereo not drawn)
3. CO[C@]12C[C@@H](COC(=O)c3cncc(Br)c3)CN(C)[C@@H]1Cc1cn(C)c3cccc2c13
4. CN1CCN(C2=Nc3cc(Cl)ccc3Nc3ccccc32)CC1
5. COc1cc2nc(N3CCN(C(=O)c4ccco4)CC3)nc(N)c2cc1OC

Compound metabolized
Compound NOT metabolized
Compound NOT metabolized
Compound NOT metabolized
Compound NOT metabolized

For every listed record, write down its Bacterial Biotransformation.
1. COCCc1ccc(OCC(O)CNC(C)C)cc1.COCCc1ccc(OCC(O)CNC(C)C)cc1.O=C(O)C(O)C(O)C(=O)O (stereo not drawn) [METOPROLOL TARTRATE]
2. Br.CN(C)CCCC1(c2ccc(F)cc2)OCc2cc(C#N)ccc21 (stereo not drawn) [CITALOPRAM HYDROBROMIDE]
3. COc1ccc2c(c1OC)C(=O)O[C@@H]2[C@H]1c2c(cc3c(c2OC)OCO3)CCN1C
4. CNS(=O)(=O)Cc1ccc2[nH]cc(CCN(C)C)c2c1.O=C(O)CCC(=O)O [SUMATRIPTAN SUCCINATE]
5. Cc1nc2n(c(=O)c1CCN1CCC(c3noc4cc(F)ccc34)CC1)CCCC2
6. Cc1ccnc2c1NC(=O)c1cccnc1N2C1CC1
7. CN1C[C@H](C(=O)N[C@]2(C)O[C@@]3(O)[C@@H]4CCCN4C(=O)[C@H](Cc4ccccc4)N3C2=O)C=C2c3cccc4[nH]cc(c34)C[C@H]21.CN1C[C@H](C(=O)N[C@]2(C)O[C@@]3(O)[C@@H]4CCCN4C(=O)[C@H](Cc4ccccc4)N3C2=O)C=C2c3cccc4[nH]cc(c34)C[C@H]21.O=C(O)C(O)C(O)C(=O)O [ERGOTAMINE TARTRATE]
8. CCC(=O)NCC[C@@H]1CCc2ccc3c(c21)CCO3

["Compound NOT metabolized", "Compound metabolized", "Compound NOT metabolized", "Compound NOT metabolized", "Compound metabolized", "Compound NOT metabolized", "Compound metabolized", "Compound metabolized"]

Provide Bacterial Biotransformation for all items below, preserving their order.
1. CCCc1nc(C(C)(C)O)c(C(=O)OCc2oc(=O)oc2C)n1Cc1ccc(-c2ccccc2-c2nnn[nH]2)cc1
2. CC[C@H](C)C(=O)O[C@H]1C[C@@H](C)C=C2C=C[C@H](C)[C@H](CC[C@@H]3C[C@@H](O)CC(=O)O3)[C@H]21
3. CC(C)c1c(C(=O)Nc2ccccc2)c(-c2ccccc2)c(-c2ccc(F)cc2)n1CC[C@@H](O)C[C@@H](O)CC(=O)O

1: Compound metabolized; 2: Compound NOT metabolized; 3: Compound NOT metabolized

List reported Bacterial Biotransformation for each of these compounds:
1. CS(=O)(=O)O.OC(CCN1CCCCC1)(c1ccccc1)c1ccccc1 [PRIDINOL METHANESULFONATE]
2. Cc1nc2n(c(=O)c1CCN1CCC(c3noc4cc(F)ccc34)CC1)CCCC2O (stereo not drawn)
3. CN1CCN(C(=O)O[C@H]2c3nccnc3C(=O)N2c2ccc(Cl)cn2)CC1
4. CN1C(=O)CCS(=O)(=O)C1c1ccc(Cl)cc1 (stereo not drawn)

Compound NOT metabolized
Compound metabolized
Compound NOT metabolized
Compound NOT metabolized

Batch lookup, Bacterial Biotransformation per entry.
1. CNC(=C[N+](=O)[O-])NCCSCc1csc(CN(C)C)n1
2. CN(C)CCC=C1c2ccccc2C=Cc2ccccc21
3. CCc1nn(CCCN2CCN(c3cccc(Cl)c3)CC2)c(=O)n1CCOc1ccccc1
4. Nc1nc2ccc(OC(F)(F)F)cc2s1

["Compound metabolized", "Compound metabolized", "Compound NOT metabolized", "Compound metabolized"]
